These entries and their values trace back to patent US20100048468A1.

Experimental system: T1, mouse GLP-1 receptor (mouse, UniProt O35659 22-463)
T1 sequence (looked up): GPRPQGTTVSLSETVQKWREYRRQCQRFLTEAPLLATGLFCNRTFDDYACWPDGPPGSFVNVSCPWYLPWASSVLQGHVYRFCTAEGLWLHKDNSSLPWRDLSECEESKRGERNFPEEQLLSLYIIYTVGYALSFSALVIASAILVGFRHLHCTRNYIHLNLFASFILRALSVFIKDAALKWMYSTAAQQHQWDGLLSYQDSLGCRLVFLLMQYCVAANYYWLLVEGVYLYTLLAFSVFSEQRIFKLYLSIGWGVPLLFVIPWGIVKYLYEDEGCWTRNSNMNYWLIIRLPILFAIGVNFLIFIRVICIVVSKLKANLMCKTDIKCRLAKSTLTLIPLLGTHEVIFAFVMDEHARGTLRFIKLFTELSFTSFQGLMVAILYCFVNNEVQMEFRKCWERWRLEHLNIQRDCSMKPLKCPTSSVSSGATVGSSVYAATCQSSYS
Test details: cell-based or functional assay
Non-standard residues stand in square brackets, D forms with d. Primed or numbered codes have the meaning given here. No end group written: not given here. mPEG‑maleimide = 30 kD linear mPEG-maleimide attached to the Cys; Aib′ = alpha aminobutyric acid (source's wording)
Measure: EC50 mouse (nM)
Provide only the numeric value, understood in nM.

# input Could you share which EC50 mouse value was measured for HGEGTFTSDVSSYLE[Aib′]QAAKEFIAWLVKGRGC(mPEG‑maleimide 20 kDa)A-NH2 (also called cgGLP30) [mgGLP32 & mgGLP-20 (SEQ ID NO: 18 + 20k PEG)] ?
# output 0.84

# input Could you share which EC50 mouse value was measured for HGEGTFTSDVSSYLE[Aib′]QAAKEFIAWLVKGRGC(mPEG‑maleimide)SG-NH2 (also: PEG on Cys32: 30k, but the text says branched 40 kDa) [cgGLP-28 (SEQ ID NO: 22 + 30k PEG)] ?
# output 0.8

# input Could you share which EC50 mouse value was measured for HGEGTFTSDVSSYLE[Aib′]QAAKEFIAWLVKGRGC(mPEG‑maleimide 20 kDa)SG-NH2 [cgGLP-24 cgGLP-27, mgGLP-22, mgGLP-33 & mgGLP-27 (SEQ ID NO: 22 + 20k PEG)] ?
# output 0.84

# input Could you share which EC50 mouse value was measured for HGEGTFTSDVSSYLE[Aib′]QAAKEFIAWLVKGRGC(mPEG‑maleimide 5 kDa)SG-NH2 (also called cgGLP-25) [cpGLP-25 (SEQ ID NO: 22 + 5k PEG)] ?
# output 0.9

# input Could you share which EC50 mouse value was measured for HGEGTFTSDVSSYLE[Aib′]QAAKEFIAWLVKGRGC(mPEG‑maleimide 20 kDa)SGG-NH2 [mgGLP-15 (SEQ ID NO: 24 + 20k PEG)] ?
# output 1.8
